Data origin, for the record: patent US12304917B1

- Test system: A549 cells
- measurement.parameters: human, 24 h
# Lookup of reported CC50 keyed by entry

- molecule: "C=C[C@]1(C)C[C@@H](OC(=O)CSC(C)(C)CNC(=O)[C@H](N)C(C)C)[C@]2(C)[C@H](C)CC[C@]3(CCC(=O)[C@H]32)[C@@H](C)[C@@H]1O [Valnemulin, valnemulin, reference compound]"
  unit.abbreviation: "µM"
  CC50: 53.7
- molecule: "C=C[C@]1(C)C[C@@H](OC(=O)CS[C@@H]2C[C@H]3CC[C@@H](C2)N3C)[C@]2(C)[C@H](C)CC[C@]3(CCC(=O)[C@H]32)[C@@H](C)[C@@H]1O [Retapamulin, retapamulin, reference compound]"
  unit.abbreviation: "µM"
  CC50: 71.5

---

- Test system: HepG2 cells
- measurement.parameters: human, 24 h
# Lookup of reported CC50 keyed by entry

- compound: "C=C[C@]1(C)C[C@@H](OC(=O)CS[C@@H]2C[C@H]3CC[C@@H](C2)N3C)[C@]2(C)[C@H](C)CC[C@]3(CCC(=O)[C@H]32)[C@@H](C)[C@@H]1O [Retapamulin, retapamulin, reference compound]"
  unit.abbreviation: "µM"
  CC50: 61.1
- compound: "C=C[C@]1(C)C[C@@H](OC(=O)CSC(C)(C)CNC(=O)[C@H](N)C(C)C)[C@]2(C)[C@H](C)CC[C@]3(CCC(=O)[C@H]32)[C@@H](C)[C@@H]1O [Valnemulin, valnemulin, reference compound]"
  unit.abbreviation: "µM"
  CC50: 77.3

---

- Test system: HepG2 cells
- assay.details: Cell Counting Kit-8 cytotoxicity
- measurement.parameters: read-out: CC50 HepG2 Cells; CCK-8, 24 hours incubation

- substance.smiles: "C=C[C@]1(C)C[C@@H](OC(=O)CSc2nc3cc[n+](Cc4ccc(C#N)cc4)cc3s2)[C@]2(C)[C@H](C)CC[C@]3(CCC(=O)[C@H]32)[C@@H](C)[C@@H]1O"
  assayed.system: "HepG2 cells"
  CC50, µM: 78.5

---

- assay.details: Cell Counting Kit-8 cytotoxicity
- measurement.parameters: human
readout.name: CC50 at 24 h (µM)

- substance.smiles: "C=C[C@]1(C)C[C@@H](OC(=O)CSc2nc3cc[n+](Cc4ccc(C#N)cc4)cc3s2)[C@]2(C)[C@H](C)CC[C@]3(CCC(=O)[C@H]32)[C@@H](C)[C@@H]1O"
  numeric.result: 79.2

---

As an illustration, consider measured MIC for compounds on S. enterica ATCC14028.

- compound: "C=C[C@]1(C)C[C@@H](OC(=O)CSc2nc3cc[n+](Cc4ccc(F)cc4)cc3s2)[C@]2(C)[C@H](C)CC[C@]3(CCC(=O)[C@H]32)[C@@H](C)[C@@H]1O"
  MIC [µg/mL]: 32
- compound: "C=C[C@]1(C)C[C@@H](OC(=O)CSc2nc3cc[n+](Cc4cc(F)ccc4C#N)cc3s2)[C@]2(C)[C@H](C)CC[C@]3(CCC(=O)[C@H]32)[C@@H](C)[C@@H]1O"
  MIC [µg/mL]: 64
- compound: "C=C[C@]1(C)C[C@@H](OC(=O)CSc2nc3cc[n+](Cc4ccc(C)cc4)cc3s2)[C@]2(C)[C@H](C)CC[C@]3(CCC(=O)[C@H]32)[C@@H](C)[C@@H]1O"
  MIC [µg/mL]: 0.25
- compound: "C=C[C@]1(C)C[C@@H](OC(=O)CS[C@@H]2C[C@H]3CC[C@@H](C2)N3C)[C@]2(C)[C@H](C)CC[C@]3(CCC(=O)[C@H]32)[C@@H](C)[C@@H]1O [Retapamulin, retapamulin, reference compound]"
  MIC [µg/mL]: 128
- compound: "C=C[C@]1(C)C[C@@H](OC(=O)CSc2nc3cc[n+](Cc4ccc(OC)cc4)cc3s2)[C@]2(C)[C@H](C)CC[C@]3(CCC(=O)[C@H]32)[C@@H](C)[C@@H]1O"
  MIC [µg/mL]: 32
- compound: "C=C[C@]1(C)C[C@@H](OC(=O)CSc2nc3cc[n+](Cc4ccc([N+](=O)[O-])cc4)cc3s2)[C@]2(C)[C@H](C)CC[C@]3(CCC(=O)[C@H]32)[C@@H](C)[C@@H]1O"
  MIC [µg/mL]: 16
- compound: "C=C[C@]1(C)C[C@@H](OC(=O)CSC(C)(C)CNC(=O)[C@H](N)C(C)C)[C@]2(C)[C@H](C)CC[C@]3(CCC(=O)[C@H]32)[C@@H](C)[C@@H]1O [Valnemulin, valnemulin, reference compound]"
  MIC [µg/mL]: 64
- compound: "C=C[C@]1(C)C[C@@H](OC(=O)CSc2nc3cc[n+](Cc4ccc(Br)cc4)cc3s2)[C@]2(C)[C@H](C)CC[C@]3(CCC(=O)[C@H]32)[C@@H](C)[C@@H]1O"
  MIC [µg/mL]: 32
- compound: "C=C[C@]1(C)C[C@@H](OC(=O)CSc2nc3cc[n+](Cc4ccc(-c5ccccc5)cc4)cc3s2)[C@]2(C)[C@H](C)CC[C@]3(CCC(=O)[C@H]32)[C@@H](C)[C@@H]1O"
  MIC [µg/mL]: 16

---

- assay.details: Cell Counting Kit-8 cytotoxicity
- measurement.parameters: human, HepG2 cells

- substance.smiles: "C=C[C@]1(C)C[C@@H](OC(=O)CSc2nc3cc[n+](Cc4ccc(C)cc4)cc3s2)[C@]2(C)[C@H](C)CC[C@]3(CCC(=O)[C@H]32)[C@@H](C)[C@@H]1O"
  CC50 at 24 h, µM: 66.4

---

# Lookup of reported solubility keyed by entry
- assay.details: physchem
- measurement.parameters: thermodynamic from solid
readout.name: solubility

- molecule: "C=C[C@]1(C)C[C@@H](OC(=O)CSc2nc3cc[n+](Cc4ccc(Cl)cc4)cc3s2)[C@]2(C)[C@H](C)CC[C@]3(CCC(=O)[C@H]32)[C@@H](C)[C@@H]1O [Compound I-5]"
  result: "623 µM"
- molecule: "C=C[C@]1(C)C[C@@H](OC(=O)CSc2nc3cc[n+](Cc4ccc(C(F)(F)F)cc4)cc3s2)[C@]2(C)[C@H](C)CC[C@]3(CCC(=O)[C@H]32)[C@@H](C)[C@@H]1O [Compound I-2]"
  result: "327 µM"
- molecule: "C=C[C@]1(C)C[C@@H](OC(=O)CSc2nc3cc[n+](Cc4ccc(F)cc4)cc3s2)[C@]2(C)[C@H](C)CC[C@]3(CCC(=O)[C@H]32)[C@@H](C)[C@@H]1O [Compound I-3]"
  result: "561 µM"
- molecule: "C=C[C@]1(C)C[C@@H](OC(=O)CSc2nc3cc[n+](Cc4ccc(Br)cc4)cc3s2)[C@]2(C)[C@H](C)CC[C@]3(CCC(=O)[C@H]32)[C@@H](C)[C@@H]1O [Compound I-1]"
  result: "450 µM"
- molecule: "C=C[C@]1(C)C[C@@H](OC(=O)CSc2nc3cc[n+](Cc4cc(OC)cc(OC)c4)cc3s2)[C@]2(C)[C@H](C)CC[C@]3(CCC(=O)[C@H]32)[C@@H](C)[C@@H]1O [Compound I-14]"
  result: "126 µM"
- molecule: "C=C[C@]1(C)C[C@@H](OC(=O)CSc2nc3cc[n+](Cc4cc(F)ccc4C#N)cc3s2)[C@]2(C)[C@H](C)CC[C@]3(CCC(=O)[C@H]32)[C@@H](C)[C@@H]1O [Compound I-13]"
  result: "231 µM"
- molecule: "C=C[C@]1(C)C[C@@H](OC(=O)CSc2nc3cc[n+](Cc4cc(F)c(F)cc4F)cc3s2)[C@]2(C)[C@H](C)CC[C@]3(CCC(=O)[C@H]32)[C@@H](C)[C@@H]1O [Compound I-7]"
  result: "656 µM"
- molecule: "C=C[C@]1(C)C[C@@H](OC(=O)CSCCN(CC)CC)[C@]2(C)[C@H](C)CC[C@]3(CCC(=O)[C@H]32)[C@@H](C)[C@@H]1O [Tiamulin, tiamulin, reference compound]"
  result: "259 µM"
- molecule: "C=C[C@]1(C)C[C@@H](OC(=O)CSc2nc3cc[n+](Cc4ccc(-c5ccccc5)cc4)cc3s2)[C@]2(C)[C@H](C)CC[C@]3(CCC(=O)[C@H]32)[C@@H](C)[C@@H]1O [Compound I-10]"
  result: "513 µM"
- molecule: "C=C[C@]1(C)C[C@@H](OC(=O)CSc2nc3cc[n+](Cc4cc(C)cc(C)c4)cc3s2)[C@]2(C)[C@H](C)CC[C@]3(CCC(=O)[C@H]32)[C@@H](C)[C@@H]1O [Compound I-12]"
  result: "549 µM"
- molecule: "C=C[C@]1(C)C[C@@H](OC(=O)CSc2nc3cc[n+](Cc4ccc(OC)cc4)cc3s2)[C@]2(C)[C@H](C)CC[C@]3(CCC(=O)[C@H]32)[C@@H](C)[C@@H]1O [Compound I-4]"
  result: "247 µM"
- molecule: "C=C[C@]1(C)C[C@@H](OC(=O)CSC(C)(C)CNC(=O)[C@H](N)C(C)C)[C@]2(C)[C@H](C)CC[C@]3(CCC(=O)[C@H]32)[C@@H](C)[C@@H]1O [Valnemulin, valnemulin, reference compound]"
  result: "386 µM"
- molecule: "C=C[C@]1(C)C[C@@H](OC(=O)CSc2nc3cc[n+](Cc4ccc(C)cc4)cc3s2)[C@]2(C)[C@H](C)CC[C@]3(CCC(=O)[C@H]32)[C@@H](C)[C@@H]1O [Compound I-9]"
  result: "812 µM"
